Exercise: for every item that follows, state its recorded GI50.
# Test system: EKVX
# measurement-notes: NCI tumour cell line growth inhibition, 48 h
Active and inactive are the calls of the source. Cut-off read from the data, not from the text of the source: active = GI50 up to about 1.1 µM and inactive = higher.

Asked: Please tell me the measured GI50 for COC(=O)C1(Cc2ccccc2)Cc2cc3c(cc2C1=O)CCC3 (stereo not given) ; system: EKVX.
Given back: 25.3 µM (inactive)

Asked: Please tell me the measured GI50 for Nc1nc(Cl)cc(NCC2CC(O)(CO)C2)n1 (stereo not given) ; system: EKVX.
Given back: > 100 µM (inactive)

Asked: Please tell me the measured GI50 for CC(C)(C)C(=O)C(C(=O)c1ccccc1)C(=O)C(C)(C)C ; system: EKVX.
Given back: > 100 µM (inactive)

Asked: Please tell me the measured GI50 for CC(=O)NC(Cc1ccccc1)NC(=O)O (stereo not given) ; system: EKVX.
Given back: > 100 µM (inactive)

Asked: Please tell me the measured GI50 for N/C(=N/c1ccc(O)cc1)S(=O)O ; system: EKVX.
Given back: > 100 µM (inactive)

Asked: Please tell me the measured GI50 for Nc1ncnc2c1ncn2[C@@H]1O[C@H](C(=O)O)[C@@H](O)[C@H]1O [5'-CARBOXY ADENOSINE] ; system: EKVX.
Given back: > 100 µM (inactive)

Asked: Please tell me the measured GI50 for CCOC(=O)C1=C(Nc2ccc(Cl)c(Cl)c2)OC/C1=N\NC(=O)Cc1ccccc1 ; system: EKVX.
Given back: > 100 µM (inactive)

Asked: Please tell me the measured GI50 for Clc1nncc2sc(-c3ccccc3)nc12 ; system: EKVX.
Given back: 4.12 µM (inactive)

Asked: Please tell me the measured GI50 for CC(C)=CCC1=C(O)C(=O)c2ccccc2C1=O [LAPACHOL] ; system: EKVX.
Given back: 78.7 µM (inactive)

Asked: Please tell me the measured GI50 for CC(=O)Nc1ccc(/C=C/c2ccc(NC(=O)Nc3ccc(/C=C/c4ccc(NC(C)=O)cc4S(=O)(=O)O)c(S(=O)(=O)O)c3)cc2S(=O)(=O)O)c(S(=O)(=O)O)c1 ; system: EKVX.
Given back: > 100 µM (inactive)
